Can you tell me log10(microsomal CLint at 0.5 μM) for the items I'm about to list?
- Method Notes: in vitro
- Stated Conditions: human, microsomes, pH 7.4, HLM CLint (uL/min/mg), human liver microsomes
For clarity, the numbers are log10 values of microsomal CLint at 0.5 μM expressed in µL/min/mg.

Item COc1ccc(Cl)cc1S(=O)(=O)N(Cc1ccccc1)C1COC(=O)OC1 has what recorded log10(microsomal CLint at 0.5 μM)? 1.32

Look at this molecule and give its reported log10(microsomal CLint at 0.5 μM). COc1ccc(N2CCN(C)CC2)cc1S(=O)(=O)N(Cc1ccc(F)cc1)Cc1ccc(F)cc1 2.18

What value of measured log10(microsomal CLint at 0.5 μM) is listed for O=S(=O)(NCc1ccccc1)c1cc2c(cc1Cl)NCN(Cc1ccccc1)S2(=O)=O ? 1.91

# log10(microsomal CLint at 0.5 μM) lookup, item NS(=O)(=O)c1cc2c(cc1Cl)NCN(Cc1ccccc1)S2(=O)=O 1.32

Query: log10(microsomal CLint at 0.5 μM); subject: COc1ccccc1S(=O)(=O)N(Cc1ccccc1)CC(O)c1ccc(F)cc1 (stereo not shown) 2.79

What log10(microsomal CLint at 0.5 μM) value was documented for this molecule, COc1ccc(C(=O)N2CCN(C)CC2)cc1S(=O)(=O)N(Cc1ccc(F)cc1)Cc1ccc(F)cc1 ? 2.77

Any idea what its log10(microsomal CLint at 0.5 μM) is? The molecule is COc1ccc(S(=O)(=O)N2CCOCC2)cc1C(=O)N(Cc1ccc(F)cc1)Cc1ccc(F)cc1 2.86

Item under review: COc1ccc(CN(Cc2ccc(F)cc2)S(=O)(=O)c2cc(F)ccc2OCC[N+](C)(C)CC(=O)O)cc1 . Reported log10(microsomal CLint at 0.5 μM)? 1.15

Which measured log10(microsomal CLint at 0.5 μM) value corresponds to COc1ccc(CN(Cc2ccc(F)cc2)S(=O)(=O)c2cc(F)ccc2OCCN(C)C)cc1 ? 2.26

Could you tell me which log10(microsomal CLint at 0.5 μM) is on file for COc1cc2c(cc1S(=O)(=O)N(Cc1ccccc1)Cc1ccccc1)S(=O)(=O)NCN2 ? 2.00

I would be grateful if you could share the reported log10(microsomal CLint at 0.5 μM) for COc1ccc(Cl)cc1S(=O)(=O)N(Cc1ccccc1)CC(O)c1ccc(F)cc1 (stereo not shown) . 2.47

Value lookup for log10(microsomal CLint at 0.5 μM); key = COc1ccc(OC)c(S(=O)(=O)N(Cc2ccc(F)cc2)Cc2cnc(OC)nc2OC)c1 2.43

What value of log10(microsomal CLint at 0.5 μM) has been reported for the following molecule? COCCN(Cc1ccccc1)S(=O)(=O)c1ccccc1OC(F)(F)F 2.29

log10(microsomal CLint at 0.5 μM) for N#Cc1ccccc1S(=O)(=O)N(Cc1ccccc1)Cc1ccccc1 ? 2.76

Reported log10(microsomal CLint at 0.5 μM), molecule COc1ccc(C#N)cc1S(=O)(=O)N(Cc1ccc(C(F)(F)F)nc1)Cc1ccc(C(F)(F)F)nc1 : ____ 1.23

Fill in the blank: the reported log10(microsomal CLint at 0.5 μM) of COc1ccc(S(C)(=O)=O)cc1S(=O)(=O)N(Cc1ccccc1)Cc1cc(C(F)(F)F)nn1C is ____. 1.78

---

Would you mind telling me the reported SI (vs PMM) of each entry?
- System: primary peritoneal mouse macrophages (PMM)
- Stated Conditions: PMM IC50 / L. infantum IC50
Returns: the value as a bare number; no unit string appended.

Lab note: need SI (vs PMM) with primary peritoneal mouse macrophages (PMM) for entry COc1ccc(Cl)cc1S(=O)(=O)N(Cc1ccccc1)OC [DNDI0003364476] , please look it up. 3

What value of SI (vs PMM) on primary peritoneal mouse macrophages (PMM) does CCN(Cc1ccccc1)S(=O)(=O)c1ccccc1 [DNDI0003363563] have? 1

Hello, I am looking for reported SI (vs PMM) with primary peritoneal mouse macrophages (PMM) for Cc1cc(C)c(C#N)c(SCSc2nc(C)cc(C)c2C#N)n1 [DNDI0003297456] . Could you help? 1

Give primary peritoneal mouse macrophages (PMM) SI (vs PMM) for CCN(Cc1ccccc1)S(=O)(=O)c1cc(OC)c(C)cc1OC [Compound Z2235810678] 30

What measured SI (vs PMM) is associated with CC[C@H](Cc1ccccc1)[S+]([O-])c1ccccc1OC (stereo partly drawn) [DNDI0003362001] on primary peritoneal mouse macrophages (PMM)? 1

Param readout = SI (vs PMM); param system = primary peritoneal mouse macrophages (PMM); param query = CCC(Cc1ccccc1)S(=O)(=O)c1nc(C)cc(C)c1C#N (stereo not drawn) [DNDI0003297459] ; response: value 3

Form field - read-out: SI (vs PMM); system: primary peritoneal mouse macrophages (PMM); submitted item: CCN(Cc1ccc(F)cc1)S(=O)(=O)c1cc(Cl)ccc1OC [DNDI0003366065] 3

Fill in the recorded SI (vs PMM) for this compound, with primary peritoneal mouse macrophages (PMM) as test system: CCCCOc1cc(C)c(C(C)C)cc1S(=O)(=O)NC1CCCCC1 [Compound Z1346174753] 16

Value wanted: SI (vs PMM) (primary peritoneal mouse macrophages (PMM)) of entry O=S(=O)(c1ccccc1OC(F)(F)F)N(Cc1ccccc1)Cc1ccccc1 [DNDI0003366074] 30

---

- Method Notes: in vitro
- Stated Conditions: human, HFF-1 cells
Readout: CC50

Name the reported CC50 value associated with the compound COc1ccc(C(=O)N2CCOCC2)cc1S(=O)(=O)N(Cc1ccccc1)CC(C)(C)C > 64 µM

Would you kindly share the measured CC50 for COc1ccc(C(=O)N2CCOCC2)cc1S(=O)(=O)N(C)Cc1ccc(F)cc1 ? > 64 µM

Form field: reported CC50 of COc1ccc(N2CCN(C)CC2)cc1S(=O)(=O)N(Cc1ccc(F)cc1)Cc1ccc(F)cc1 8.45 µM

Fill in: CC50 of COc1ccc(C(=O)NC2COC2)cc1S(=O)(=O)N(Cc1ccc(F)cc1)Cc1ccc(F)cc1 is ___ > 64 µM

For COc1cc2c(cc1S(=O)(=O)N(Cc1ccccc1)Cc1ccccc1)S(=O)(=O)NCN2 , what is its reported CC50? 21.9 µM

Item under review: N#Cc1ccc(O)c(S(=O)(=O)N(Cc2ccc(F)cc2)Cc2ccc(F)cc2)c1 . Reported CC50? 7.8 µM

What value of CC50 has been recorded for this entry: O=S(=O)(c1ccccn1)N(Cc1ccccc1)Cc1ccccc1 33.8 µM

# get_value(readout='CC50', item= O=S(=O)(NCc1ccccc1)c1cc2c(cc1Cl)NCN(Cc1ccccc1)S2(=O)=O ) 60.2 µM

CC50 for COc1ccc(CN(Cc2ccc(F)cc2)S(=O)(=O)c2cc(F)ccc2OCCN(C)C)cc1 ? 1.95 µM

Recorded CC50 for O=[N+]([O-])c1ccc(Cl)cc1S(=O)(=O)N(Cc1ccccc1)Cc1ccc(F)cc1 , please? > 64 µM

// lookup CC50 for N#Cc1ccccc1S(=O)(=O)N(Cc1ccccc1)Cc1ccccc1 1.28 µM

What value of CC50 has been reported for the following compound? COc1ccc(C#N)cc1S(=O)(=O)N(Cc1ccc(C(F)(F)F)nc1)Cc1ccc(C(F)(F)F)nc1 > 64 µM

Fill blank: measured CC50 of the compound COc1ccc(Cl)cc1S(=O)(=O)N(Cc1ccccc1)C(CO)CO is ____. > 64 µM

Consider the compound shown here: COCCOCN(Cc1ccccc1)S(=O)(=O)c1cc(OC)ccc1OC What is its recorded CC50? > 64 µM

Please look up its CC50: COc1ccc(OC)c(S(=O)(=O)N(Cc2ccc(F)cc2)Cc2cnc(OC)nc2OC)c1 > 64 µM

Entry under review: CCN(Cc1ccc(F)cc1)S(=O)(=O)c1cc(C(=O)N2CCOCC2)ccc1OC . Reported CC50? > 64 µM

---

- Method Notes: in vitro
- Stated Conditions: human
Please provide measured CC50 at 3 days for the entries that follow.

What value of CC50 at 3 days has been reported for the following compound? COc1ccc(OC)c(S(=O)(=O)NCc2ccccc2)c1 > 64 µM

Report CC50 at 3 days for COc1ccc(Cl)cc1S(=O)(=O)N(CC(=O)N1CCOCC1)Cc1ccccc1 please. > 32 µM

For CCCCOc1ccc(C(=O)N2CCOCC2)cc1S(=O)(=O)NCc1ccccc1 , what is its reported CC50 at 3 days? > 64 µM

What does the record list as CC50 at 3 days for O=S(=O)(c1cccnc1N1CCOCC1)N(Cc1ccc(F)cc1)Cc1ccc(F)cc1 ? > 64 µM

What CC50 at 3 days value was documented for this compound, CCCCC(=O)Nc1cccnc1S(=O)(=O)CCOc1ccccc1 ? 29.7 µM

Which measured CC50 at 3 days value corresponds to CC(=O)Nc1ccc(S(=O)(=O)NCc2ccccc2)cc1 ? > 64 µM

Could you share which CC50 at 3 days value was measured for COCCN(Cc1ccccc1)S(=O)(=O)c1cc(C(=O)N2CCNCC2)ccc1OC ? > 64 µM

Would you mind telling me what CC50 at 3 days value was observed for O=S1(=O)c2cc(F)ccc2OCC(c2ccc(F)cc2)N1Cc1ccccc1 (centres unmarked) ? > 64 µM

Name the reported CC50 at 3 days value associated with the compound CCN(Cc1ccccc1)S(=O)(=O)c1cc(Cl)ccc1OC 53.2 µM

# get_value(readout='CC50 at 3 days', item= COC(=O)[C@H](CO)NS(=O)(=O)c1cc(Cl)ccc1OC ) > 64 µM

Given O=S1(=O)NC(Cc2ccccc2)COc2ccc(F)cc21 (centres unmarked) , state its recorded CC50 at 3 days. > 64 µM

Data request, read-out CC50 at 3 days, for COc1ccc(-c2nc(C)no2)cc1S(=O)(=O)N(Cc1ccc(F)cc1)Cc1ccc(F)cc1 > 64 µM

Form field: reported CC50 at 3 days of COc1ccc(C(=O)N2CCOCC2)cc1S(=O)(=O)N(C)Cc1ccc(F)cc1 > 64 µM

Sample COc1ccc(Cl)cc1S(=O)(=O)NCCN(C)C — what was its CC50 at 3 days? > 64 µM

Look up CC50 at 3 days for this compound: CCCN(Cc1ccc(F)cc1)S(=O)(=O)c1cc([S+](C)[O-])ccc1OC (centres unmarked) > 64 µM

Name the reported CC50 at 3 days value associated with the compound COc1ncccc1S(=O)(=O)N(Cc1ccc(F)cc1)Cc1ccccn1 > 64 µM

Item COCCN(Cc1ccccc1)S(=O)(=O)c1ccccc1 has what recorded CC50 at 3 days? > 64 µM

Consider the compound shown here: COc1ccc(C(=O)N2CCOCC2)cc1S(=O)(=O)N(Cc1ccc(F)cc1)CC(C)C What is its recorded CC50 at 3 days? > 64 µM

// returns reported CC50 at 3 days for input COc1ccc(S(=O)(=O)N(Cc2ccccc2)Cc2ccccc2)cc1 > 64 µM

Fill blank: measured CC50 at 3 days of the compound COCCN(Cc1ccc(F)cc1)S(=O)(=O)c1cc(C(=O)N2CCOCC2)ccc1OC is ____. 22.7 µM

Quick one: CC50 at 3 days for COc1ccc(C(=O)N(C)CCO)cc1S(=O)(=O)N(Cc1ccc(F)cc1)Cc1ccc(F)cc1 ? > 64 µM

Which CC50 at 3 days value is on record for COc1cc(S(=O)(=O)N(Cc2ccccc2)Cc2ccccc2)c(OC)cc1C ? > 64 µM

For the compound O=[N+]([O-])c1ccc(Cl)cc1S(=O)(=O)N(Cc1ccccc1)Cc1ccc(F)cc1 , what CC50 at 3 days is on record? > 64 µM

Give its CC50 at 3 days value. Item: CCCOc1cc(C)c(C)cc1S(=O)(=O)NC1CCCC1 > 32 µM

Give the measured CC50 at 3 days of Cc1cc(C)c(C#N)c(SCSc2nc(C)cc(C)c2C#N)n1 . > 64 µM

Look up CC50 at 3 days for this compound: COc1ccc(OC)c(S(=O)(=O)N(Cc2ccccc2)Cc2ccccc2)c1 45.2 µM

Recorded CC50 at 3 days for CN(C)CCN(Cc1ccccc1)S(=O)(=O)c1ccc(N2C(=O)CCC2=O)cc1 , please? > 64 µM

So what's the measured CC50 at 3 days for this one? O=S(=O)(c1cc(F)ccc1F)N(Cc1ccccc1)C(CO)CO > 64 µM

What value of CC50 at 3 days has been recorded for this entry: O=C(COc1ccc(Cl)cc1S(=O)(=O)NCc1ccccc1)N1CCOCC1 > 55.4 µM

Could you share which CC50 at 3 days value was measured for COc1ccc(OC)c(S(=O)(=O)N(Cc2ccc(F)cc2)Cc2cnc(OC)nc2OC)c1 ? > 64 µM

Entry under review: COc1ccc(OC)c(S(=O)(=O)N(Cc2ccc(F)cc2)Cc2ccnn2C)c1 . Reported CC50 at 3 days? > 64 µM

Returns the measured CC50 at 3 days for the input compound. Input: COc1ccc(Cl)cc1S(=O)(=O)N(Cc1ccccc1)C(Cc1ccccc1)C(N)=O (centres unmarked) 9.62 µM

Please report the recorded CC50 at 3 days for COc1ccc(C(=O)N2CCOCC2)cc1S(=O)(=O)N(Cc1ccc(F)cc1)Cc1ccc(F)cc1 . > 64 µM

Which CC50 at 3 days is reported for this compound? CS(=O)(=O)c1ccccc1S(=O)(=O)N(Cc1ccccc1)Cc1ccccc1 > 64 µM

For the compound O=S1(=O)NCNc2cc(Cl)c(S(=O)(=O)N(Cc3ccccc3)Cc3ccccc3)cc21 , what CC50 at 3 days is on record? 25 µM
